B1: tRNA (parent)
chain: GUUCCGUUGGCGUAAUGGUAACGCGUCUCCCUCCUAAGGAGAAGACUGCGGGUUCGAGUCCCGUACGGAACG

- Variants of: B1
- Measurement Protocol: yeast fitness relative to wild type (ratio to wild type); higher = fitter; tRNA-Arg(CCU), competitive growth, 37 C, YPD
This sample holds only a part of the variants without activity.
Respond with Condition met for yeast fitness values of 0.7 and above, Condition not met for values below.

Input line: Record G18C C31G A42G G67A ; criterion: yeast fitness no lower than 0.7. Met?
Output line: Condition not met

Input line: Tell me whether yeast fitness is at least 0.7 here: U8C A65G
Output line: Condition met

Input line: Could you please find out whether U8A G10C C66U has yeast fitness that meets 0.7 or exceeds it?
Output line: Condition not met

Input line: Determine whether measured yeast fitness meets or exceeds 0.7 for U7A C11G A36U C49U
Output line: Condition not met

Input line: Kindly determine if yeast fitness recorded for C5U A14U U16A is above or exactly 0.7.
Output line: Condition not met

Input line: Record C4G A45U G48C ; criterion: yeast fitness no lower than 0.7. Met?
Output line: Condition not met

Input line: Check if yeast fitness >= 0.7 (inclusive). Item: C11A A21C A42C C61U
Output line: Condition not met

Input line: Dear colleague, could you confirm whether A15U U16A G18A C60U has yeast fitness at or above 0.7?
Output line: Condition not met

Input line: Exam item: decide whether the reported yeast fitness for G25C C29U A65C A70U is at least 0.7.
Output line: Condition not met

Input line: For this variant, is measured yeast fitness 0.7 or higher? A43C C46A G67A
Output line: Condition not met

Input line: Threshold query (yeast fitness >= 0.7) on A43G C55U C66G
Output line: Condition not met

Input line: Could you tell me if the measured yeast fitness of A14G A15U C34U reaches 0.7 or more?
Output line: Condition not met

Input line: API: above_or_equal(metric=yeast fitness, cutoff=0.7) for item U19C C30U C55G G58C
Output line: Condition not met

Input line: Is the recorded value of yeast fitness equal to or greater than 0.7 for this variant? U2A U19G C29G
Output line: Condition not met

Input line: Hello, I need to know if U19C A45C C61A has measured yeast fitness not below 0.7. Thanks!
Output line: Condition not met

Input line: Given G25C A37U G48A C61U , state whether its yeast fitness is at least 0.7.
Output line: Condition not met

Input line: Check the entry C5A A21C U54G C60U : does yeast fitness equal or exceed 0.7?
Output line: Condition not met

Input line: Is the recorded value of yeast fitness equal to or greater than 0.7 for this variant? C24G U26A C33U
Output line: Condition not met

Input line: Is reported yeast fitness greater than or equal to 0.7 here: U3A G52A
Output line: Condition met

Input line: Test whether the variant G18A A37G C61U records yeast fitness of 0.7 or higher.
Output line: Condition not met

Input line: Test whether the variant A36G A37U G56C records yeast fitness of 0.7 or higher.
Output line: Condition not met

Input line: # bool: yeast fitness of U13A A15C C46U >= 0.7
Output line: Condition not met

Input line: hey, is yeast fitness for this one >= 0.7? U54C A65U
Output line: Condition met

Input line: Is it the case that U8C G9A A42G has yeast fitness reaching or exceeding 0.7?
Output line: Condition not met

Input line: Is yeast fitness at least 0.7? Consider G12A A21G C46G G51A G67C
Output line: Condition not met

Input line: Item A43U A45G with yeast fitness of 0.7 or above?
Output line: Condition met

Input line: State whether the measured yeast fitness reaches 0.7, counting equality as reaching it, for C5A C29U C66U
Output line: Condition not met

Input line: I'd appreciate it if you could say whether U35A C49U has yeast fitness at least equal to 0.7.
Output line: Condition met

Input line: Given C4U U8C A37U A45U C49U A65G , state whether its yeast fitness is at least 0.7.
Output line: Condition not met

Input line: Test whether the variant C5G U16A G39A records yeast fitness of 0.7 or higher.
Output line: Condition not met

Input line: Hi team, for U13C U26C C27G C34U A37U A43G A45G C46U , is the recorded yeast fitness at or above 0.7?
Output line: Condition not met

Input line: Reported yeast fitness at or above 0.7? U3C A14G
Output line: Condition met

Input line: Does the reported yeast fitness for A20C C46G fall at or above the 0.7 mark?
Output line: Condition met

Input line: Threshold query (yeast fitness >= 0.7) on C30G C31G U32A C66U
Output line: Condition not met

Input line: Is yeast fitness for C4U A14U at or above 0.7?
Output line: Condition not met

Input line: Quick check: does U26A G41C A65G G67A have yeast fitness greater than or equal to 0.7?
Output line: Condition not met

Input line: Does the reported yeast fitness for C30U G58C fall at or above the 0.7 mark?
Output line: Condition met

Input line: Is it the case that C11A G44C has yeast fitness reaching or exceeding 0.7?
Output line: Condition not met

Input line: Kindly determine if yeast fitness recorded for C61U U64A is above or exactly 0.7.
Output line: Condition not met

Input line: Is it the case that U2A U8C has yeast fitness reaching or exceeding 0.7?
Output line: Condition met

Input line: API: above_or_equal(metric=yeast fitness, cutoff=0.7) for item U2A G41A
Output line: Condition met

Input line: Determine whether this variant has yeast fitness no lower than 0.7: C5A C31A C49U
Output line: Condition not met

Input line: Is it the case that G6A G12A C27G G68C A70U has yeast fitness reaching or exceeding 0.7?
Output line: Condition not met

Input line: Say whether C5U U13C shows yeast fitness of 0.7 or more.
Output line: Condition met

Input line: Please check the record A14G C27G and state if its yeast fitness is at or above 0.7.
Output line: Condition not met

Input line: Determine whether measured yeast fitness meets or exceeds 0.7 for A20C A21C G23C C30G A65U C66U
Output line: Condition not met

Input line: API: above_or_equal(metric=yeast fitness, cutoff=0.7) for item C22G U35G A40C
Output line: Condition not met

Input line: Kindly determine if yeast fitness recorded for U3C G12A G25A is above or exactly 0.7.
Output line: Condition met

Input line: Is yeast fitness at least 0.7? Consider U2A G23A C29G C49U
Output line: Condition not met

Input line: Test whether the variant G18A C22U records yeast fitness of 0.7 or higher.
Output line: Condition not met

Input line: Say whether U16C C22U A65U shows yeast fitness of 0.7 or more.
Output line: Condition not met

Input line: Check if yeast fitness >= 0.7 (inclusive). Item: C5G A15G A21G G25C C33U
Output line: Condition not met

Input line: Does the reported yeast fitness for C5G U7G C33A fall at or above the 0.7 mark?
Output line: Condition not met

Input line: Does yeast fitness meet or surpass 0.7 for A43G U64A A69U ?
Output line: Condition not met

Input line: Record C11G C62U G63A ; criterion: yeast fitness no lower than 0.7. Met?
Output line: Condition not met

Input line: Could you please find out whether A43G G67C has yeast fitness that meets 0.7 or exceeds it?
Output line: Condition met

Input line: Entry U13G U16C A42U G44A C49A : is its yeast fitness no less than 0.7?
Output line: Condition not met

Input line: Please tell me: is the variant U3A A57G at or over 0.7 in terms of yeast fitness?
Output line: Condition met

Input line: // inclusive: yeast fitness at least 0.7? input: G9A A21G C33A C62U G63C A70C
Output line: Condition not met

Input line: yeast fitness >= 0.7 for A20C C24G C27A G51C C61U ?
Output line: Condition not met

Input line: Hi, just wondering whether C4U A40U U47C shows yeast fitness of 0.7 or higher.
Output line: Condition not met

Input line: Record C24U C49A U64C ; criterion: yeast fitness no lower than 0.7. Met?
Output line: Condition met

Input line: Could you verify whether the entry C4U A20G C30A shows yeast fitness of no less than 0.7?
Output line: Condition met

Input line: Textbook exercise: given the entry A40G C49G , state whether its yeast fitness is greater than or equal to 0.7.
Output line: Condition not met

Input line: hey, is yeast fitness for this one >= 0.7? A21U C30U A36G G44A
Output line: Condition not met

Input line: Given the entry C11U C22G U59C , answer whether its yeast fitness meets or surpasses 0.7.
Output line: Condition not met

Input line: Does the variant A15G U19G A40G have recorded yeast fitness that is 0.7 or more?
Output line: Condition not met

Input line: // inclusive: yeast fitness at least 0.7? input: U3C C11A G25A C46G A57U
Output line: Condition not met

Input line: Confirm if yeast fitness reported for the variant C4G C34G G56A U59A is 0.7 or above.
Output line: Condition not met

Input line: Please tell me: is the variant C4A G12C U19C C24G A43U C61U at or over 0.7 in terms of yeast fitness?
Output line: Condition not met

Input line: Could you verify whether the entry U8A A40C C46U shows yeast fitness of no less than 0.7?
Output line: Condition not met

Input line: Record U2A C34G A36G A43U ; criterion: yeast fitness no lower than 0.7. Met?
Output line: Condition not met
